Consider the following AC50 values measured on 5-hydroxytryptamine receptor 6 (Homo sapiens).
Sequence (P50406 whole entry): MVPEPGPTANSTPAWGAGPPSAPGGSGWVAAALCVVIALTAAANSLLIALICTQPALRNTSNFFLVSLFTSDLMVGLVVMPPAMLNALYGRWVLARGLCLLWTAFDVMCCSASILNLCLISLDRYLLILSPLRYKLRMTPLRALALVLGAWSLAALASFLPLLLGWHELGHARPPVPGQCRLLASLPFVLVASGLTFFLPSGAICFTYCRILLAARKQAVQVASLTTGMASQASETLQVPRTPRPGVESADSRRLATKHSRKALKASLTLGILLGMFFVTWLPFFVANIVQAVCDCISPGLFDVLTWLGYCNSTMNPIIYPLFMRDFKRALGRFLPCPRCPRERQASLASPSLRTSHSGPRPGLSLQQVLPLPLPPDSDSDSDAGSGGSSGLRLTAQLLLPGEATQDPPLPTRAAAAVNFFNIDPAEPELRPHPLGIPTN

Examples from the recorded data:
>>> test_result("CN(CCOc1ccc(CC2SC(=O)NC2=O)cc1)c1ccccn1 (stereo not given)")
"> 10 µM"
>>> test_result("Cc1ccnc2c1NC(=O)c1cccnc1N2C1CC1")
"> 10 µM"
>>> test_result("CC(O)(CS(=O)(=O)c1ccc(F)cc1)C(=O)Nc1ccc(C#N)c(C(F)(F)F)c1 (stereo not given) [BICALUTAMIDE]")
"> 10 µM"

Challenge: Enter reported AC50 observed with 5-hydroxytryptamine receptor 6 (Homo sapiens) for CCCCOc1ccc(C(=O)CCN2CCCCC2)cc1
Response given: > 10 µM

Challenge: Enter reported AC50 observed with 5-hydroxytryptamine receptor 6 (Homo sapiens) for CC(C)NC[C@H](O)COc1ccc(CC(N)=O)cc1
Response given: > 10 µM

###

Consider the following AC50 values measured on Neuronal acetylcholine receptor subunit alpha-4 (Homo sapiens).
Sequence (P43681 whole entry): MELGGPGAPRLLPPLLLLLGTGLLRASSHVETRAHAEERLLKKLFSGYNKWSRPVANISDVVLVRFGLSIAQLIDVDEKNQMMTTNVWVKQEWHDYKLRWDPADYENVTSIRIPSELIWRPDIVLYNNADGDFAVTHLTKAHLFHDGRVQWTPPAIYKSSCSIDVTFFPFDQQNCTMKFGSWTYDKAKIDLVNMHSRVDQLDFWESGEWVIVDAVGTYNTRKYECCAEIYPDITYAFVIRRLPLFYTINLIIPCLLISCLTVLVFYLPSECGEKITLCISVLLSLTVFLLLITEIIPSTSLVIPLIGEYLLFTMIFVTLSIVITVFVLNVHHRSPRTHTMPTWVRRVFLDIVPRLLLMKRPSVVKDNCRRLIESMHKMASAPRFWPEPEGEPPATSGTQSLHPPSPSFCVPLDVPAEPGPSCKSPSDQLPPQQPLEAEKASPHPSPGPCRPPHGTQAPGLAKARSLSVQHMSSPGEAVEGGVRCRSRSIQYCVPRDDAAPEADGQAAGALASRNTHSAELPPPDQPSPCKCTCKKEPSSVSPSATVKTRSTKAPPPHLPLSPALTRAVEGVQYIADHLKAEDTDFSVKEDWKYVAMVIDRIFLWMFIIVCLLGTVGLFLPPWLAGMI

>>> test_result("CN(C)C/C=C/C(=O)Nc1cc2c(Nc3ccc(F)c(Cl)c3)ncnc2cc1O[C@H]1CCOC1 [AFATINIB]")
"> 30 µM"
>>> test_result("CC(Cc1cccc(C(F)(F)F)c1)NCCOC(=O)c1ccccc1 (stereo not drawn) [BENFLUOREX]")
"> 30 µM"
>>> test_result("C[N+]12CCC(CC1)C(OC(=O)C(O)(c1ccccc1)c1ccccc1)C2 (stereo not drawn)")
"> 30 µM"
>>> test_result("CC(C)Cc1ccc([C@H](C)C(=O)O)cc1 [DEXIBUPROFEN]")
"> 30 µM"

Challenge: Enter reported AC50 observed with Neuronal acetylcholine receptor subunit alpha-4 (Homo sapiens) for Cc1onc(-c2c(F)cccc2Cl)c1C(=O)N[C@@H]1C(=O)N2[C@@H]1SC(C)(C)[C@@H]2C(=O)O [FLOXACILLIN]
Response given: > 30 µM

Challenge: Enter reported AC50 observed with Neuronal acetylcholine receptor subunit alpha-4 (Homo sapiens) for CC(C)C[C@H](NC(=O)[C@@H](O)[C@H](N)Cc1ccccc1)C(=O)O [UBENIMEX]
Response given: > 30 µM

###

# target under test: Gamma-aminobutyric acid receptor subunit alpha-1 (Rattus norvegicus); further: assay procedure not described here
# Sequence (P62813 whole entry): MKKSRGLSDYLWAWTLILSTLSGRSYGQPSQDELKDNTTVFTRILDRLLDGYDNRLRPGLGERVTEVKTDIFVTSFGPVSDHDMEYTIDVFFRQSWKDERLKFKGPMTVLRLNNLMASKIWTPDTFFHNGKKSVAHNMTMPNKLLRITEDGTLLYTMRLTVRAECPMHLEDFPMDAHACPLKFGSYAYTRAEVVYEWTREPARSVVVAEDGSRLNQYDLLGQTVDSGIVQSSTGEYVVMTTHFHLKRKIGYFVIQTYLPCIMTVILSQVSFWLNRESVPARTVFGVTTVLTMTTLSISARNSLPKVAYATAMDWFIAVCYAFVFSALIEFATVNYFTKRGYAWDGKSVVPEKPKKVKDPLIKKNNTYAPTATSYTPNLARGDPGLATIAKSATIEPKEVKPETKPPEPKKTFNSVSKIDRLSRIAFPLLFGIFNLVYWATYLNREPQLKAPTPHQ
# Format: functional
reported endpoint: AC50

Challenge: Please give the measured AC50 for this compound: Cc1cccc(C)c1NC(=O)CC12CCCN1CCC2 [PILSICAINIDE]
Response given: > 30 µM

Challenge: Please give the measured AC50 for this compound: CC(C)(O/N=C(\C(=O)N[C@@H]1C(=O)N2C(C(=O)[O-])=C(C[n+]3ccccc3)CS[C@H]12)c1csc(N)n1)C(=O)O
Response given: > 300 µM

Challenge: Please give the measured AC50 for this compound: O=C(/C=C/c1cccc(S(=O)(=O)Nc2ccccc2)c1)NO
Response given: > 10 µM

Challenge: Please give the measured AC50 for this compound: CCOC(=O)c1c(CSc2ccccc2)n(C)c2cc(Br)c(O)c(CN(C)C)c12
Response given: > 30 µM

Challenge: Please give the measured AC50 for this compound: CCCc1nc2c(C)cc(-c3nc4ccccc4n3C)cc2n1Cc1ccc(-c2ccccc2C(=O)O)cc1
Response given: > 30 µM

###

We begin with a simple list: items and their reported AC50.
# target under test: Voltage-dependent L-type calcium channel subunit alpha-1C (Rattus norvegicus, UniProt P22002); further: assay procedure not described here
# Sequence (P22002 whole entry): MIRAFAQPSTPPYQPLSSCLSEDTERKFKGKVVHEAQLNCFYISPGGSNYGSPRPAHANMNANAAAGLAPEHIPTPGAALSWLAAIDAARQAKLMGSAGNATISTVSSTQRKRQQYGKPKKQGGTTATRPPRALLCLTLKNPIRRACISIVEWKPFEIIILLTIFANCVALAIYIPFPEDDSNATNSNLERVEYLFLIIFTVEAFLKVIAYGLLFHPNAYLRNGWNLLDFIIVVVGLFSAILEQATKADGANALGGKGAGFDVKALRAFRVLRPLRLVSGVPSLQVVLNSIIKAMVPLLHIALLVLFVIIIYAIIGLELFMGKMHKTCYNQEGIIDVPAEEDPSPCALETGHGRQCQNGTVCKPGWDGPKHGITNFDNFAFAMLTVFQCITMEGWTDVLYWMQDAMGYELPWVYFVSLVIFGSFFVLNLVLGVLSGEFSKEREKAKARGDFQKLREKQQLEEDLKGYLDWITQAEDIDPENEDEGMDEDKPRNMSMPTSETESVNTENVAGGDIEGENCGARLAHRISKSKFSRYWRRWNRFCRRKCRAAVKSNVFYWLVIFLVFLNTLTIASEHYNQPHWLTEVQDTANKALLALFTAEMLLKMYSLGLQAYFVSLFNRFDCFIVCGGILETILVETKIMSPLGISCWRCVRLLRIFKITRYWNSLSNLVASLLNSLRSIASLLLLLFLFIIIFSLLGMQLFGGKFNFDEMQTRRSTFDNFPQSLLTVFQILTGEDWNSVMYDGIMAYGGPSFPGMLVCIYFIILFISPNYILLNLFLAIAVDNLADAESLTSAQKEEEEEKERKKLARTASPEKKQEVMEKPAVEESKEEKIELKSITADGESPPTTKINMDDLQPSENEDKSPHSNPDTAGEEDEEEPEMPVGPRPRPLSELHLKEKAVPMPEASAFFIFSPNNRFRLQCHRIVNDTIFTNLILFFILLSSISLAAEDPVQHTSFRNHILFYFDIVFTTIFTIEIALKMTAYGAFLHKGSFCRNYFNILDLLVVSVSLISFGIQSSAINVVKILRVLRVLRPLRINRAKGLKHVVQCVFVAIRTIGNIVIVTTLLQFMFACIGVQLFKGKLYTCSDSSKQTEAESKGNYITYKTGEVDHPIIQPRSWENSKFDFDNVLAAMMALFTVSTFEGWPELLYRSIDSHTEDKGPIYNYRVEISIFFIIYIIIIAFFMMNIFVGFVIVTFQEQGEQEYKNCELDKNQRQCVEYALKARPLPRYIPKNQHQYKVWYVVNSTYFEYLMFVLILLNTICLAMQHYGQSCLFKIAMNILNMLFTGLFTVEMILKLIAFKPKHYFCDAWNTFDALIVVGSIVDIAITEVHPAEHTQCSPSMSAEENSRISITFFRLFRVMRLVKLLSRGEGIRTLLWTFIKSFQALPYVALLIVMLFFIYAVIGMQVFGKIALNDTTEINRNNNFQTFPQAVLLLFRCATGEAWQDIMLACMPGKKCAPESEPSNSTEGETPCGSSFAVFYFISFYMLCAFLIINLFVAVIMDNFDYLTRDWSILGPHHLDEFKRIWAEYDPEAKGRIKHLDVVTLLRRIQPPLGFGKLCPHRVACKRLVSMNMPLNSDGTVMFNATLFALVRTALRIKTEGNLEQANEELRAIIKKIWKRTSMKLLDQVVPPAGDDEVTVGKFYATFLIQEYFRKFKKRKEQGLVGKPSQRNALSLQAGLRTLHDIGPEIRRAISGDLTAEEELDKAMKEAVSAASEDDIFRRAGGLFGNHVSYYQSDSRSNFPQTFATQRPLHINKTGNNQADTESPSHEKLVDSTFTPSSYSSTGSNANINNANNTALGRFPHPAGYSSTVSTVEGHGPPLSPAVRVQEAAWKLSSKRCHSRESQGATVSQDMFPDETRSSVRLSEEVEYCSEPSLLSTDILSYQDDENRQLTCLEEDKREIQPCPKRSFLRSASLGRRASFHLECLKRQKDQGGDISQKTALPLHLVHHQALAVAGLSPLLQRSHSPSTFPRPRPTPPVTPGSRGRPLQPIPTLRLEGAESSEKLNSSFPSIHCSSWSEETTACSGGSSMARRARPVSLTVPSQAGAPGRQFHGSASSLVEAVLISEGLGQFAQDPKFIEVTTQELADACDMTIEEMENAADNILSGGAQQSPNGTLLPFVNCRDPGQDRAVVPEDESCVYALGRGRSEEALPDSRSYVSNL
# Assay type: functional

Challenge: Please give the measured AC50 for this compound: CC(CN(C)C)C(C)(O)Cc1ccc(Cl)cc1 (centres undefined)
Response given: > 10 µM

Challenge: Please give the measured AC50 for this compound: COc1cc(N)c(Cl)cc1C(=O)NC1CCN(CCCOc2ccc(F)cc2)CC1OC (centres undefined) [CISAPRIDE]
Response given: > 10 µM

Challenge: Please give the measured AC50 for this compound: CCC[C@@H]1C[C@@H](C(=O)N[C@@H]([C@H]2O[C@H](SC)[C@H](O)[C@@H](O)[C@H]2O)[C@@H](C)O)N(C)C1
Response given: > 10 µM

Challenge: Please give the measured AC50 for this compound: CCc1nc(N)nc(N)c1-c1ccc(Cl)cc1
Response given: > 10 µM

###

Consider the following AC50 values measured on 5-hydroxytryptamine receptor 2B (Homo sapiens).
Sequence (P41595 whole entry): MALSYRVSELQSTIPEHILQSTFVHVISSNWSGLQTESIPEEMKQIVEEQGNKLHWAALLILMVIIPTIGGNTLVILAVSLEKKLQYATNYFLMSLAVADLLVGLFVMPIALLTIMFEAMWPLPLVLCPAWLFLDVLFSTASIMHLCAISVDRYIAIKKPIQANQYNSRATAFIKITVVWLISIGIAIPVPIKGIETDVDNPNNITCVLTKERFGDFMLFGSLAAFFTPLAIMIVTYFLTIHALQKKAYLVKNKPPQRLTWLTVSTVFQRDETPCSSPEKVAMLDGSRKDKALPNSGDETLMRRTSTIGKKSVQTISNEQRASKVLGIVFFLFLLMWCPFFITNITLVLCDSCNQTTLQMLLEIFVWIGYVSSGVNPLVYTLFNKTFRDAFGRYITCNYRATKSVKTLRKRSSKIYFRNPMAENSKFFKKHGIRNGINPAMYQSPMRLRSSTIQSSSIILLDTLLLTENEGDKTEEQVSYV

Challenge: Enter reported AC50 observed with 5-hydroxytryptamine receptor 2B (Homo sapiens) for CC(O)(CS(=O)(=O)c1ccc(F)cc1)C(=O)Nc1ccc(C#N)c(C(F)(F)F)c1 (centres undefined) [BICALUTAMIDE]
Response given: > 10 µM

Challenge: Enter reported AC50 observed with 5-hydroxytryptamine receptor 2B (Homo sapiens) for Cc1nc(Nc2ncc(C(=O)Nc3c(C)cccc3Cl)s2)cc(N2CCN(CCO)CC2)n1
Response given: 7.6 µM

Challenge: Enter reported AC50 observed with 5-hydroxytryptamine receptor 2B (Homo sapiens) for O=C(O)Cc1ccccc1Oc1ccc(Cl)cc1Cl
Response given: > 10 µM

Challenge: Enter reported AC50 observed with 5-hydroxytryptamine receptor 2B (Homo sapiens) for CCCc1nc2c(C)cc(-c3nc4ccccc4n3C)cc2n1Cc1ccc(-c2ccccc2C(=O)O)cc1
Response given: > 10 µM

Challenge: Enter reported AC50 observed with 5-hydroxytryptamine receptor 2B (Homo sapiens) for CN(CCOc1ccc(CC2SC(=O)NC2=O)cc1)c1ccccn1 (centres undefined)
Response given: > 10 µM

Challenge: Enter reported AC50 observed with 5-hydroxytryptamine receptor 2B (Homo sapiens) for CC(CN1c2ccccc2Sc2ccccc21)N(C)C (centres undefined)
Response given: 0.0679 µM

Challenge: Enter reported AC50 observed with 5-hydroxytryptamine receptor 2B (Homo sapiens) for Fc1ccc([C@@H]2CCNC[C@H]2COc2ccc3c(c2)OCO3)cc1
Response given: 11.9 µM

Challenge: Enter reported AC50 observed with 5-hydroxytryptamine receptor 2B (Homo sapiens) for CN(Cc1cnc2nc(N)nc(N)c2n1)c1ccc(C(=O)N[C@@H](CCC(=O)O)C(=O)O)cc1 [METHOTREXATE]
Response given: > 10 µM

Challenge: Enter reported AC50 observed with 5-hydroxytryptamine receptor 2B (Homo sapiens) for O=C(O)Cc1ccccc1Nc1c(Cl)cccc1Cl
Response given: > 10 µM

###

# target under test: Synaptic vesicular amine transporter (Rattus norvegicus); further: assay procedure not described here
# Sequence (Q01827 whole entry): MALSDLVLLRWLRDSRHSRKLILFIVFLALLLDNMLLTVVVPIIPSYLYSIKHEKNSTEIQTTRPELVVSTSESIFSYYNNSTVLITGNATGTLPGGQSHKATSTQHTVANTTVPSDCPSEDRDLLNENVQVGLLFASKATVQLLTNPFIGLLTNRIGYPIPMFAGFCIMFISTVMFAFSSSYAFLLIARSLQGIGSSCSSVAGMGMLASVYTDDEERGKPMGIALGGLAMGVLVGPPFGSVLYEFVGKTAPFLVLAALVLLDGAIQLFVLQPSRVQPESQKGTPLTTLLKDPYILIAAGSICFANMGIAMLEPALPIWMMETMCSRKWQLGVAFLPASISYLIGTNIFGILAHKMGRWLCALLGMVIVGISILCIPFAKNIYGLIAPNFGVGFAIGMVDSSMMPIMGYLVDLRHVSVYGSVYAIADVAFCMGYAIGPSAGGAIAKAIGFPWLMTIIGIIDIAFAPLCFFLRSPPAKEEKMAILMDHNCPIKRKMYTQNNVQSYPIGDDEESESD
# Assay type: functional
Lab note: cut-off is 10 µM. Strictly less in AC50 is yes. Exactly 10 µM or more is no.

>>> class_label("CC(c1cc2ccccc2s1)N(O)C(N)=O (stereo not given) [ZILEUTON]")
"no"

Challenge: Say whether its AC50 is strictly beneath 10 µM. Entry: CN1Cc2c(N)cccc2C(c2ccccc2)C1 (stereo not given) [NOMIFENSINE]
Response given: no

Challenge: Say whether its AC50 is strictly beneath 10 µM. Entry: O=C(O)c1ccccc1 [BENZOIC ACID]
Response given: no

Challenge: Say whether its AC50 is strictly beneath 10 µM. Entry: C=CC(=O)Nc1cccc(Oc2nc(Nc3ccc(N4CCN(C)CC4)cc3)nc3ccsc23)c1 [OLMUTINIB]
Response given: yes

Challenge: Say whether its AC50 is strictly beneath 10 µM. Entry: Cc1ccccc1C(=O)Nc1ccc(C(=O)N2CCCC(O)c3cc(Cl)ccc32)c(C)c1 (stereo not given) [TOLVAPTAN]
Response given: no

Challenge: Say whether its AC50 is strictly beneath 10 µM. Entry: O=C1Cc2cc(CCN3CCN(c4nsc5ccccc45)CC3)c(Cl)cc2N1 [ZIPRASIDONE]
Response given: yes

Challenge: Say whether its AC50 is strictly beneath 10 µM. Entry: Fc1ccc([C@@H]2CCNC[C@H]2COc2ccc3c(c2)OCO3)cc1 [PAROXETINE]
Response given: yes

Challenge: Say whether its AC50 is strictly beneath 10 µM. Entry: CN(C)CCCN1c2ccccc2CCc2ccccc21 [IMIPRAMINE]
Response given: no

Challenge: Say whether its AC50 is strictly beneath 10 µM. Entry: CCOc1cc([C@@H](CS(C)(=O)=O)N2C(=O)c3cccc(NC(C)=O)c3C2=O)ccc1OC
Response given: no

Challenge: Say whether its AC50 is strictly beneath 10 µM. Entry: CN[C@]1(c2ccccc2Cl)CCCCC1=O [ESKETAMINE]
Response given: no

###

# target under test: Voltage-dependent L-type calcium channel subunit alpha-1C (Rattus norvegicus); further: assay procedure not described here
# Type: functional
Where a SMILES comes first, the peptide text is derived from it. [ ]: non-standard residue; d: D form. pGlu = O=C1CC[C@@H](C(=O)O)N1; Thz = O=C(O)[C@@H]1CSCN1
reported endpoint: AC50

Examples from the recorded data:
>>> test_result("CCc1cc2c(s1)-n1c(C)nnc1CN=C2c1ccccc1Cl [ETIZOLAM]")
"> 30 µM"
>>> test_result("C=CCN1CCc2nc(N)sc2CC1 [TALIPEXOLE]")
"> 30 µM"
>>> test_result("Cc1ccnc2c1NC(=O)c1cccnc1N2C1CC1 [NEVIRAPINE]")
"> 10 µM"

Challenge: Please give the measured AC50 for this molecule: Fc1ccc([C@@H]2CCNC[C@H]2COc2ccc3c(c2)OCO3)cc1 [PAROXETINE]
Response given: 2.5 µM

Challenge: Please give the measured AC50 for this molecule: CC(C)N(CCCCOCC(=O)O)c1cnc(-c2ccccc2)c(-c2ccccc2)n1
Response given: > 30 µM

Challenge: Please give the measured AC50 for this molecule: C[C@]12CCC(=O)C[C@@H]1CC[C@@H]1[C@@H]2CC[C@]2(C)[C@@H](O)CC[C@@H]12 [STANOLONE]
Response given: > 30 µM

Challenge: Please give the measured AC50 for this molecule: CCCNC(=O)NS(=O)(=O)c1ccc(Cl)cc1 [CHLORPROPAMIDE]
Response given: > 10 µM

Challenge: Please give the measured AC50 for this molecule: O=C1CC[C@@H](C(=O)N2CSC[C@H]2C(=O)O)N1 [PIDOTIMOD] ([pGlu]-[Thz]-OH)
Response given: > 30 µM

Every entry's value here was drawn from ChEMBL document CHEMBL5291721.
